target: Protein kinase C alpha type (Homo sapiens); assay: Displacement of phorbol 12,13-dibutyrate (PDBU) from recombinant Protein kinase C alpha
For each of the compounds below, state its Ki.

CCCCCCCCC#Cc1ccc2c(c1)[C@@H](CO)NC(=O)[C@H](C(C)C)N2C; 21 µM

Switching to the query record.
Exercise: # query: Ki of entry "CC(C)[C@H]1C(=O)N[C@H](CO)c2ccccc2N1C"
Solution: 127 µM

Origin of values: ChEMBL document CHEMBL1131708
